B1: LINE1-full (parent)
chain: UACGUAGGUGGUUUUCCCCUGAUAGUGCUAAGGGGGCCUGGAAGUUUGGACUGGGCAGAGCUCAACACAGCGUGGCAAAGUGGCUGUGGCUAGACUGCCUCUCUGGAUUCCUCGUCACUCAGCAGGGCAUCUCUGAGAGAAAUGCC

- Variants of: B1
- Test method notes: self-cleavage, relative activity (ratio to wild type); higher = more cleavage; in vitro, sequencing; the parent is a self-cleaving ribozyme
Given measured self-cleavage, output true if it is greater than or equal to 0.09 and false if not.

self-cleavage >= 0.09 for G34U U132C ?
true

self-cleavage >= 0.09 for G93A A142G ?
false

self-cleavage >= 0.09 for U109A U112A ?
true

self-cleavage >= 0.09 for U81C G88U ?
false
